study-system: UniProt:Q99572
Sequence (Q99572 whole entry): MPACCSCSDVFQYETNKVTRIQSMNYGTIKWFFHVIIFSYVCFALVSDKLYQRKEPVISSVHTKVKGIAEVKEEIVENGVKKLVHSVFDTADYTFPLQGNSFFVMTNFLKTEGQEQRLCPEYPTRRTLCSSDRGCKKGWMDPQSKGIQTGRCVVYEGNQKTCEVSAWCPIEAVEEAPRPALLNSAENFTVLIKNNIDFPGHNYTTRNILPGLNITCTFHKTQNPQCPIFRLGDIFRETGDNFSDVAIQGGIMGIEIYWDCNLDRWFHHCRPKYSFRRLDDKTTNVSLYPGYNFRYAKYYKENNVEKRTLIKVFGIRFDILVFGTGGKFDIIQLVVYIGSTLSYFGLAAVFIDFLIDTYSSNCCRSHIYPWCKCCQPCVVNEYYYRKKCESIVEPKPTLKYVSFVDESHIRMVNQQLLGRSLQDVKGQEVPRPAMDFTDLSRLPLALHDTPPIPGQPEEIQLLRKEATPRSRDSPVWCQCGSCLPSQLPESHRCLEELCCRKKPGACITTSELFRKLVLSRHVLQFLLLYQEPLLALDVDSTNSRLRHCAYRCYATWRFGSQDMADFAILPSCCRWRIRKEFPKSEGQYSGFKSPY
test-protocol: P2X7 FLIPR assay (BzATP-stimulated calcium fluorescence, antagonist IC50)
Type: cell-based
observation-type: IC50 (nM)
All answers are understood in nM, so give the number only.

Can you look up the measured IC50 of `Cc1ccc(Cl)c(C(=O)NCC2(c3ccc(F)nc3)CCC(F)(F)CC2)c1` for me? 0.76

Report IC50 for O=C(NCC(CC1CC1)c1cnc(C(F)(F)F)nc1)c1cccc(F)c1Cl (stereo not shown) [2-chloro-N-(3-cyclopropyl-2-(2-(trifluoromethyl)pyrimidin-5-] please. 14

May I ask what IC50 has been recorded for `Cc1ccccc1C(=O)NCC1(c2cccnc2)CCCC1` ? 3600

Any idea what IC50 was measured for O=C(NCC(CC1CC1)c1cnc(C(F)(F)F)nc1)c1c(F)cccc1Cl (stereo not shown) [2-chloro-N-(3-cyclopropyl-2-(2-(trifluoromethyl)pyrimidin-5-] ? 22
